Molecular target: Voltage-dependent L-type calcium channel subunit alpha-1C (Homo sapiens)
Assay: Inhibition of Cav1.2 calcium current measured using Voltage-clamp 2-electrode in Xenopous Oocyte transfected with human L-type calcium channel
Format: functional, cell-based, Xenopus
Parameters: ca sol conc 4 - Ba(OH)2 mM, temp 20-22 C
Property Name: pIC50
Units for pIC50: none; it is -log10 of a concentration expressed in mol/L.

Tell me measured pIC50 for CCN(CC)CC(=O)N1C[C@@H](c2ccc(Cl)cc2)Sc2ccccc21 please.
4.28

###

Molecular target: Voltage-dependent L-type calcium channel subunit alpha-1C (Cavia porcellus, UniProt O35505)
Sequence (O35505 whole entry): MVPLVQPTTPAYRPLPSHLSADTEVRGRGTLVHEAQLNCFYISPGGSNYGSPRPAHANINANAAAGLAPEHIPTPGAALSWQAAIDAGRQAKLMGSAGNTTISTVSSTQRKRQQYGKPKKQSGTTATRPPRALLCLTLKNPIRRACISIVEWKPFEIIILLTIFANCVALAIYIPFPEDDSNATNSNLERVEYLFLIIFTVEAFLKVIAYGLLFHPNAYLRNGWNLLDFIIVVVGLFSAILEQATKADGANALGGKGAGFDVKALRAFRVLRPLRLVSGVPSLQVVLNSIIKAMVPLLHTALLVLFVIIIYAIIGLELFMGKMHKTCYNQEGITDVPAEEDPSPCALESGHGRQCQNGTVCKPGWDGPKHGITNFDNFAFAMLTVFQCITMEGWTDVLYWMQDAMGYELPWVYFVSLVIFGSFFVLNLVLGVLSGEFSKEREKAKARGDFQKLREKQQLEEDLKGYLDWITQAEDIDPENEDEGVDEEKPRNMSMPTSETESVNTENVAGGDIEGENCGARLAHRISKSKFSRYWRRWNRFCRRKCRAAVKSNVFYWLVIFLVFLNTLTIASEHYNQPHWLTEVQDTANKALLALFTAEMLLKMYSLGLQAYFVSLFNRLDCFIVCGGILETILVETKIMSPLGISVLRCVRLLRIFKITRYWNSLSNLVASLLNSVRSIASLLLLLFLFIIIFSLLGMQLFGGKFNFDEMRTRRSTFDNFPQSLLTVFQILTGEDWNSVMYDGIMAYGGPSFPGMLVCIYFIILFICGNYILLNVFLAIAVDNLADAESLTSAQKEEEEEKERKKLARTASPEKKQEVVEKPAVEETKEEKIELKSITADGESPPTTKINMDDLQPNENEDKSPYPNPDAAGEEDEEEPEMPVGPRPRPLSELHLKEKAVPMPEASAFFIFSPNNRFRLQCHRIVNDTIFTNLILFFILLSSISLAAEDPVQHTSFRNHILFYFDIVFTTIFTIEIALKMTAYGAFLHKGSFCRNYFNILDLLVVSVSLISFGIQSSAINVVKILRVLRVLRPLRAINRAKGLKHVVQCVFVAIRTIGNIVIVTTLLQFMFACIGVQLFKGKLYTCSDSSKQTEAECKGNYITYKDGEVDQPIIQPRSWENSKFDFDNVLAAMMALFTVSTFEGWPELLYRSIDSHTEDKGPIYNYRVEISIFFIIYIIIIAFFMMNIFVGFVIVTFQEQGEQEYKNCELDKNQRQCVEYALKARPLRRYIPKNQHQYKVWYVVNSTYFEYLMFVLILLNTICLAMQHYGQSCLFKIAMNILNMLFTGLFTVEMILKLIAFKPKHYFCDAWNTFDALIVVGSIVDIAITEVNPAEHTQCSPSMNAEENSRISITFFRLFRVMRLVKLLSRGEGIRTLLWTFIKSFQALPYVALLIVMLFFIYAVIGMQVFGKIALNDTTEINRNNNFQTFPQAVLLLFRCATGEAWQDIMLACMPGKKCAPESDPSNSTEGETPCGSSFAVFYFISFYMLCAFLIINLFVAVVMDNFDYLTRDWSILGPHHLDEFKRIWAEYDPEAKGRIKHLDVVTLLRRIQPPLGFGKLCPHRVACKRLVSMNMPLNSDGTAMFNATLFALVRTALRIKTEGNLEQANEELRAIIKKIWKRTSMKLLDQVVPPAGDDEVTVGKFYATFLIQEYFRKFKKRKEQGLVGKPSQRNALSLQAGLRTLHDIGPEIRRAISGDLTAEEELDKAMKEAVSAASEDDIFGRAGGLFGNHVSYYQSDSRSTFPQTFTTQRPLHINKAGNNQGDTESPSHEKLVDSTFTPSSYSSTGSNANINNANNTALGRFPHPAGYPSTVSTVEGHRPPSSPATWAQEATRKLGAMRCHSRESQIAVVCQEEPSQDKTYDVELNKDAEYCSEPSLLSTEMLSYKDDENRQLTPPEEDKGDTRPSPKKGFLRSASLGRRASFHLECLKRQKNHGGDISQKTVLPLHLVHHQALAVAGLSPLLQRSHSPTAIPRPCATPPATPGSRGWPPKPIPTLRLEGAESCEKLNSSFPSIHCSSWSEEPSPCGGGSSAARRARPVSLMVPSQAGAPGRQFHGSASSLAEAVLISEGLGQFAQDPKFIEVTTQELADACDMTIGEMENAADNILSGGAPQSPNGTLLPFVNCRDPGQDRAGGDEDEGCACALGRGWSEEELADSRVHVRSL
Assay: Inhibition of Cav1.2 calcium current measured using whole cell patch clamp in guinea pig ventricular myocytes
Format: functional, cell-based, Heart, Ventricular myocyte
Set-up: ca sol conc 1.8 mM, temp 36 C
Property Name: pIC50
Would you please state pIC50, meaning minus log10 of the concentration in mol/L, as a bare number?

Give reported pIC50 value for CCCCc1oc2ccc(NS(C)(=O)=O)cc2c1C(=O)c1ccc(OCCCN(CCCC)CCCC)cc1 [DRONEDARONE]
6.40

###

Biological target: Voltage-dependent L-type calcium channel subunit alpha-1C (Cavia porcellus, UniProt O35505)
Experiment: Inhibition of Cav1.2 calcium current measured using whole cell patch clamp in guinea pig ventricular myocytes
Assay type: functional, cell-based, Heart, Ventricular myocyte
Set-up: ca sol conc 1.8 mM, temp 19 C
Property Name: pIC50
Friendly reminder that pIC50 comes from taking -log10 of the concentration in mol/L.

Give a short answer stating reported pIC50 for COc1ccc(CCNC(C)COc2c(C)cccc2C)cc1OC (stereo unspecified) .
4.55

###

Target: Voltage-dependent L-type calcium channel subunit alpha-1C (Rattus norvegicus, UniProt P22002)
Sequence (P22002 whole entry): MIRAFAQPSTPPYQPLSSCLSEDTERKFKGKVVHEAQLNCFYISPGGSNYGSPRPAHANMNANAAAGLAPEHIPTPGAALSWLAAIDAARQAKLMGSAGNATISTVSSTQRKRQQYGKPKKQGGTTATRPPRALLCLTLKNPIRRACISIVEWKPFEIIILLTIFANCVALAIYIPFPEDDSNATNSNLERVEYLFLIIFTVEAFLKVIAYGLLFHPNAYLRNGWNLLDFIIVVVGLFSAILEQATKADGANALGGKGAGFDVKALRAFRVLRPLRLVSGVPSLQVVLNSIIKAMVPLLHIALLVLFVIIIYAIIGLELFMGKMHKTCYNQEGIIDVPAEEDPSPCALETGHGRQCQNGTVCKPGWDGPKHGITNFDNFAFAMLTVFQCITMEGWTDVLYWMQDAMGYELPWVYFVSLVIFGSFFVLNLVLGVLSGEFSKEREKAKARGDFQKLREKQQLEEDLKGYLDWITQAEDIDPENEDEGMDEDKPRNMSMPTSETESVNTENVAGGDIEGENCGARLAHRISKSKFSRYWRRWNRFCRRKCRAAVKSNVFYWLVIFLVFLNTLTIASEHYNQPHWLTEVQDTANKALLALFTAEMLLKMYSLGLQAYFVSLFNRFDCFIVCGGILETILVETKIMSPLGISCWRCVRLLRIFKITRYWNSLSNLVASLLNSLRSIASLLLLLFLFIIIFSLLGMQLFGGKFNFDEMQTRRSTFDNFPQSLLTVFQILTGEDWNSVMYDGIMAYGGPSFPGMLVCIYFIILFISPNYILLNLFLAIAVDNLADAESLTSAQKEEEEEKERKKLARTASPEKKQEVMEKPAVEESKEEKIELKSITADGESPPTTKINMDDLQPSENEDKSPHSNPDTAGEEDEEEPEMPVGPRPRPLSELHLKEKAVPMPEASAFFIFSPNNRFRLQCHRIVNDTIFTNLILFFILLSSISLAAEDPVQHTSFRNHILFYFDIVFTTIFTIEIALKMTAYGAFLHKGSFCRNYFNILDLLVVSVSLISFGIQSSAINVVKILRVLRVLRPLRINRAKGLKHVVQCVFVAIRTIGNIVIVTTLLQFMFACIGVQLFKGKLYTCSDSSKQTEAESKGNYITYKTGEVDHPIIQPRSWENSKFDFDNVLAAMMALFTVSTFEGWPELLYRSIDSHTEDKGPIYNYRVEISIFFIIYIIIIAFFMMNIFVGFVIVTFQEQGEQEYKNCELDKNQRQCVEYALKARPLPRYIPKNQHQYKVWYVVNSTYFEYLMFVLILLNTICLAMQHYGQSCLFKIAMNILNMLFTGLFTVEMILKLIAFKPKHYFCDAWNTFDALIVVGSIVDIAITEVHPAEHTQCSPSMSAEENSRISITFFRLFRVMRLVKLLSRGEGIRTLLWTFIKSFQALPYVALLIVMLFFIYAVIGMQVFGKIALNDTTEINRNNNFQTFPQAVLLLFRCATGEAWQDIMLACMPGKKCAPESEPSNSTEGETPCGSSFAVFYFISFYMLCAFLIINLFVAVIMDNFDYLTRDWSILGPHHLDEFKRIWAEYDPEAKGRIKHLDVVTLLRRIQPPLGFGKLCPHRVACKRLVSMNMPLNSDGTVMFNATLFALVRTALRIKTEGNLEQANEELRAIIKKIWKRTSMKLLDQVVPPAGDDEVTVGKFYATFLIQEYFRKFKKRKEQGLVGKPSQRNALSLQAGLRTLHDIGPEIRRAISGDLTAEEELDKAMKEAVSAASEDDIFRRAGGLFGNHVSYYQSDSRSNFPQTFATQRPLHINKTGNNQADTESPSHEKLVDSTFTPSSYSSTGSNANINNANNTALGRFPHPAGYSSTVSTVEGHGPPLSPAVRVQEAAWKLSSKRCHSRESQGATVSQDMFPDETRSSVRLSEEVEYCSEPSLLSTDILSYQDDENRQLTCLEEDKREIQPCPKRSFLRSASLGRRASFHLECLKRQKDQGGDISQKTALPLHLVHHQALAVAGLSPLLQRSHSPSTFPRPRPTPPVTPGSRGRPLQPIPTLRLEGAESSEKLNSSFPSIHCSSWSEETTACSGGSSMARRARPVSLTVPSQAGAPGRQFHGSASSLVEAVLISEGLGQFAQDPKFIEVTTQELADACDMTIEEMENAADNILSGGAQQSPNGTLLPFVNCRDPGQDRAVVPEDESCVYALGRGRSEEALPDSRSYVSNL
Test: Inhibition of Cav1.2 calcium current measured using whole cell patch clamp in rat ventricular myocytes
Format: functional, cell-based, Heart, Ventricular myocyte
Parameters: ca sol conc 2 mM, temp room
Property Name: pIC50
// pIC50 is dimensionless: -log10 of concentration (M)

Read the entry COCCOc1ccccc1CCN1CCC(CC(=O)N[C@@H](c2ccc(F)cc2)C(C)C)CC1 and write its reported pIC50.
4.42

###

Molecular target: Voltage-dependent L-type calcium channel subunit alpha-1C (Rattus norvegicus)
Assay: Inhibition of Cav1.2 calcium current measured using whole cell patch clamp in rat Artery myocytes
Format: functional, cell-based, Tail
Design: ca sol conc 5 mM, temp 20-22 C
Please provide measured IC50 for the entries that follow.
Please state the figure in µM; there is no need to write the unit.

State its IC50 for this molecule: O=c1cc(-c2ccccc2O)oc2cc(O)cc(O)c12
45.1

Determine from records and report IC50 for O=c1c(O)c(-c2ccc(O)cc2)oc2cc(O)ccc12
27.5

Supply IC50 value. Item: O=c1c(-c2ccc(O)cc2)coc2cc(O)cc(O)c12
57.5

Answer with reported IC50 of O=C1CC(c2ccc(O)cc2)Oc2cc(O)cc(O)c21 (racemic)
100

Give the reported IC50 for this molecule. O=c1cc(-c2ccccc2)oc2cc(O)c(O)c(O)c12
85.1

###

Target: Voltage-dependent L-type calcium channel subunit alpha-1C (Rattus norvegicus)
Experiment: Inhibition of Cav1.2 calcium current measured using whole cell patch clamp in rat myocyte
Format: functional, Heart, Cardiac Muscle Cell
Set-up: ca sol conc 1.8 mM, temp 20-25 C
Property Name: pIC50
Lab note: report pIC50 as minus log10 of the concentration in molar units, number only.

For Clc1ccc(COC(Cn2ccnc2)c2ccc(Cl)cc2Cl)c(Cl)c1 (configuration not stated) , write its pIC50.
5.52

Give recorded pIC50. CC(=O)N1CCN(c2ccc(OCC3COC(Cn4ccnc4)(c4ccc(Cl)cc4Cl)O3)cc2)CC1 (configuration not stated)
5.46

###

Molecular target: Voltage-dependent L-type calcium channel subunit alpha-1C (Rattus norvegicus)
Experiment: Inhibition of Cav1.2 calcium current measured using whole cell patch clamp in rat ventricular myocytes
Assay type: functional, cell-based, Heart, Ventricular myocyte
Design: ca sol conc 1.8 mM, temp 25-27 C
Property Name: pIC50
Expect pIC50 as a plain number equal to -log10 of the molar concentration.

Output pIC50 of O=C1c2ccccc2-c2c3c(cc4ccnc1c24)OCO3 [LIRIODENINE]
5.60

// fetch pIC50 given entry O=C1COc2c1c(=O)c1ccc(Br)cc1n2Cc1ccccc1F
5.31

// fetch pIC50 given entry COc1ccc2c(c1OC)[C@@H]1Cc3cc4c(cc3[C@H](C2)N1C)OCO4
5.18

###

Molecular target: Voltage-dependent L-type calcium channel subunit alpha-1C (Rattus norvegicus, UniProt P22002)
Test: Inhibition of Cav1.2 calcium current measured using whole cell patch clamp in rat ventricular myocytes
Type: functional, cell-based, Heart, Ventricular myocyte
Set-up: ca sol conc 1 mM, temp 22-25 C
Property Name: IC50 (µM)
Response body: numeric value in µM, unit text excluded.

Give me measured IC50, please, for this compound: O=C(/C=C/c1ccc(O)c(O)c1/C=C/c1ccc(O)c(O)c1)O[C@H](Cc1ccc(O)c(O)c1)C(=O)O
38.3

###

Hi there, I'd appreciate the recorded pIC50 for every entry that follows.
Molecular target: Voltage-dependent L-type calcium channel subunit alpha-1C (Cavia porcellus)
Assay: Inhibition of Cav1.2 calcium current measured using whole cell patch clamp in guinea pig ventricular myocytes
Type: functional, cell-based, Heart, Ventricular myocyte
Design: ca sol conc 1.8 mM, temp 25-27 C
pIC50 here: minus log base 10 of the concentration, concentration in moles per litre.

In one line, give reported pIC50 of the entry COc1ccc2c(=O)c3c(n(Cc4ccccc4)c2c1)OCC3=O .
5.40

Supply measured pIC50 of COc1cc(C[C@H](C)[C@@H](C)C(=O)c2ccc(O)c(OC)c2)ccc1O in your reply.
5.12

Read the entry O=C(/C=C/c1ccc(O)c(O)c1)OCCc1ccccc1 and write its reported pIC50.
5.96

###

Molecular target: Voltage-dependent L-type calcium channel subunit alpha-1C (Rattus norvegicus, UniProt P22002)
Test: Inhibition of Cav1.2 calcium current measured using whole cell patch clamp in rat ventricular myocytes
Format: functional, cell-based, Heart, Ventricular myocyte
Parameters: ca sol conc 1.8 mM
Property Name: pIC50
pIC50 is a log-scale quantity: -log10 of the concentration expressed in molar.

Input CC(C)CC(N(C)C)C1(c2ccc(Cl)cc2)CCC1 (stereo unspecified) [SIBUTRAMINE] , output reported pIC50.
5.00

###

Biological target: Voltage-dependent L-type calcium channel subunit alpha-1C (Cavia porcellus, UniProt O35505)
Assay: Inhibition of Cav1.2 calcium current measured using whole cell patch clamp in guinea pig ventricular myocytes
Format: functional, cell-based, Heart, Ventricular myocyte
Parameters: ca sol conc 1.8 mM
Property Name: IC50

Report IC50 for COc1cccc(/C=C/CN2CCC(=C3c4ccccc4C=Cc4ccccc43)CC2)c1[N+](=O)[O-]
320 nM

###

Test: Inhibition of Cav1.2 calcium current measured using whole cell patch clamp in mouse/rat NG108-15
Format: functional, cell-based
Set-up: ca sol conc 1.8 mM, temp 20-25 C
Property Name: IC50 (µM)
The reply should be a number in µM, with the unit left off.

Given Cc1cc(O)c(C(C)C)cc1CN1CCCCC1 , respond with its IC50.
3.6

###

Molecular target: Voltage-dependent L-type calcium channel subunit alpha-1C (Cavia porcellus, UniProt O35505)
Assay: Inhibition of Cav1.2 calcium current measured using whole cell patch clamp in guinea pig tracheal smooth muscle cells
Type: functional, tissue-based, Trachea
Design: ca sol conc 5 - Barium mM, temp 35 C
Property Name: IC50 (µM)
Please state the figure in µM; there is no need to write the unit.

Name the recorded IC50 of the item CN1CCCC(n2nc(Cc3ccc(Cl)cc3)c3ccccc3c2=O)CC1 (stereo unspecified) in your answer.
8

###

Target: Voltage-dependent L-type calcium channel subunit alpha-1C (Cavia porcellus)
Test: Inhibition of Cav1.2 calcium current measured using whole cell patch clamp in guinea pig ventricular myocytes
Type: functional, cell-based, Heart, Ventricular myocyte
Set-up: ca sol conc 0.5 mM
Property Name: pIC50
Quick note: pIC50 values are minus log10 of concentrations in mol/L.

Consider the compound COc1ccc2c(c1OC)C[N+]1(Cc3ccc(Cl)cc3)CCc3cc4c(cc3C1C2)OCO4 (stereo unspecified) and give its recorded pIC50.
4.94

###

Molecular target: Voltage-dependent L-type calcium channel subunit alpha-1C (Mus musculus, UniProt Q01815)
Test: Inhibition of Cav1.2 calcium current measured using whole cell patch clamp in mouse ventricular myocytes
Format: functional, cell-based, Heart, Ventricular myocyte
Parameters: ca sol conc 1.8 mM, temp room
Property Name: pIC50
Scale explanation: pIC50 corresponds to minus log10 of a concentration expressed in moles per litre.

Look up and report pIC50, with Voltage-dependent L-type calcium channel subunit alpha-1C (Mus musculus, UniProt Q01815) as system, for CCN1CCC(CC(NC(=O)c2ccc([N+](=O)[O-])cc2)c2ccc(F)cc2)CC1 (stereo unspecified)
4.00

###

Molecular target: Voltage-dependent L-type calcium channel subunit alpha-1C (Rattus norvegicus, UniProt P22002)
Assay: Inhibition of Cav1.2 calcium current measured using whole cell patch clamp in rat myocyte
Type: functional, Heart, Cardiac Muscle Cell
Set-up: ca sol conc 1.8 mM
Property Name: IC50 (µM)
Return type: number; implicit unit µM.

Using the record for CC(/N=C(\NC#N)Nc1ccc(OC(F)F)cc1)C(C)(C)C (stereo unspecified) , state its measured IC50.
24.1
